target: UniProt:O00238; assay: KINOMEscan competition binding; settings: compound 10.0 µM
Sequence (O00238 whole entry, looked up): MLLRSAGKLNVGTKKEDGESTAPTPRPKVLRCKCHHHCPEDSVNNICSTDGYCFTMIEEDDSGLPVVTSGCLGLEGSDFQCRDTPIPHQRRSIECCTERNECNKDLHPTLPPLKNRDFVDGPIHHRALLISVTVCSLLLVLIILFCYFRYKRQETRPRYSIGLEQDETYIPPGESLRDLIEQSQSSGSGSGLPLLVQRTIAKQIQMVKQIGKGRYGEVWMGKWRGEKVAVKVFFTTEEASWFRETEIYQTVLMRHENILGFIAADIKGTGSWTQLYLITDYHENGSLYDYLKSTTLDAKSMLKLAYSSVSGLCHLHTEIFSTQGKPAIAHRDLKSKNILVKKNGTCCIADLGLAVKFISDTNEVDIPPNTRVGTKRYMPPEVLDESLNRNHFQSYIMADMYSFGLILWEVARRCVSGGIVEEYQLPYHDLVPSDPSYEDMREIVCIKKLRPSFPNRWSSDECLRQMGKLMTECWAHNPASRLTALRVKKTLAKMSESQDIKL
READOUT_TYPE: kinase still bound, per cent of control (%)
Just the number in %, nothing appended.

In [3]: df
Out[3]:
                            chemical_smiles                             readout_type  units_text  reported
0  CN1CCN(c2ccc(C(=O)Nc3ncc4c(n3)N(C)c3ccccc3C(=O)N4C)cc2)CC1  kinase still bound, per cent of control           %       100
1  CN1C(=O)c2ccccc2N(C)c2nc(Nc3ccc(N4CCC(O)CC4)cn3)ncc21  kinase still bound, per cent of control           %        19
2  COc1cc(N2CCN(C)CC2)ccc1Nc1ncc2c(n1)Nc1ccccc1NC2=O  kinase still bound, per cent of control           %        19
3  CS(=O)(=O)Nc1ccc(-c2ncc(/C=C3\SC(=N)NC3=O)s2)cc1  kinase still bound, per cent of control           %        14

## Input Which kinase still bound, per cent of control reading was recorded for the compound CN1C(=O)c2ccccc2N(C)c2nc(Nc3ccc(N4CCC(O)CC4)cc3)ncc21 ?
## Output 13

## Input Which kinase still bound, per cent of control reading was recorded for the compound N=C1NC(=O)/C(=C/c2ccc(-c3ccccc3O)o2)S1 ?
## Output 8.8

## Input Which kinase still bound, per cent of control reading was recorded for the compound N=C1NC(=O)/C(=C/c2c[nH]c(=O)c(-c3ccc(S(N)(=O)=O)cc3)c2)S1 ?
## Output 5.7

## Input Which kinase still bound, per cent of control reading was recorded for the compound N=C1NC(=O)/C(=C/c2ccc(-c3ccc(C(=O)Nc4ccc(N5CCNCC5)cc4)cc3O)o2)S1 ?
## Output 19

## Input Which kinase still bound, per cent of control reading was recorded for the compound COc1cc(N2CCN(C)CC2)ccc1Nc1ncc2c(n1)N(C)c1ccccc1N(C)C2=O ?
## Output 100
